Assay read-out IC50; system under study: catalytic domain of MMP-13 enzyme (Homo sapiens).

In plain terms, "O=C1COc2ccc(CNC(=O)c3nc4sc5c(c4c(=O)[nH]3)CCS(=O)(=O)C5)cc2N1" has a documented IC50 of < 100 nM

In plain terms, "CS(=O)(=O)c1ccc(CNC(=O)c2nc3sc4c(c3c(=O)[nH]2)CCC4)cc1" has a documented IC50 of 100 to 20000 nM

In plain terms, CCOC(=O)C1CCc2sc3nc(C(=O)NCc4ccc5c(c4)CN(c4c(N)c(=O)c4=O)CC5)[nH]c(=O)c3c21 (centres unmarked) has a documented IC50 of < 100 nM

In plain terms, "COc1ccc2c(c1)CCc1sc3nc(C(=O)NCc4ccc5c(c4)NC(=O)CO5)[nH]c(=O)c3c1-2" has a documented IC50 of < 100 nM

In plain terms, "COc1ccc(CNC(=O)c2nc3sc4c(c3c(=O)[nH]2)CCC4)cc1" has a documented IC50 of 100 to 20000 nM

----------
Molecular target: catalytic domain of MMP-13 enzyme (Homo sapiens, UniProt P45452)
pIC50: −log10 of the molar value.
// pIC50 lookup, one value per entry

Fill in: catalytic domain of MMP-13 enzyme (Homo sapiens, UniProt P45452) pIC50 for O=C(NCc1ccc(C(F)(F)F)nc1)c1nc2sc3c(c2c(=O)[nH]1)CCC3 [2/368] = 4.70 to 7.00

Fill in: catalytic domain of MMP-13 enzyme (Homo sapiens, UniProt P45452) pIC50 for O=C(NC(c1ccccc1)c1ccccn1)c1nc2sc3c(c2c(=O)[nH]1)CCC3 (stereo not shown) [2/328] = 4.70 to 7.00

Fill in: catalytic domain of MMP-13 enzyme (Homo sapiens, UniProt P45452) pIC50 for O=C1COc2ccc(CNC(=O)c3nc4sc5c(c4c(=O)[nH]3)CCCS5(=O)=O)cc2N1 [Example 22] = > 7.00

Fill in: catalytic domain of MMP-13 enzyme (Homo sapiens, UniProt P45452) pIC50 for O=C1COc2ccc(CNC(=O)c3nc4sc5c(c4c(=O)[nH]3)C3CCN5CC3)cc2N1 [2/89] = > 7.00

----------
Assay read-out IC50; system under study: catalytic domain of MMP-3 enzyme (Homo sapiens, UniProt P08254).
Sequence (P08254 100-272 limits assumed): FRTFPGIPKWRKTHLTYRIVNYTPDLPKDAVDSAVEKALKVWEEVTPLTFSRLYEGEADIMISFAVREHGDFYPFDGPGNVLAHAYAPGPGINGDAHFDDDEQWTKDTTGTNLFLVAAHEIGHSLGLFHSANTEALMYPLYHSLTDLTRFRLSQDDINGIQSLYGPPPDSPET

CC(C)(C)OC(=O)N1CCc2sc3nc(C(=O)NCc4ccc5c(c4)NC(=O)CO5)[nH]c(=O)c3c2CC1 = 250 to 20000 nM
O=C1COc2ccc(CNC(=O)c3nc4sc5c(c4c(=O)[nH]3)CCS(=O)(=O)C5)cc2N1 = < 250 nM
O=C1COc2ccc(CNC(=O)c3nc4sc5c(c4c(=O)[nH]3)CC(C(=O)O)C5)cc2N1 (centres unmarked) = 250 to 20000 nM
CC1SCc2sc3nc(C(=O)NCc4ccc5c(c4)CN(c4c(N)c(=O)c4=O)CC5)[nH]c(=O)c3c21 (centres unmarked) = 250 to 20000 nM

Fill in: catalytic domain of MMP-3 enzyme (Homo sapiens, UniProt P08254) IC50 for "Nc1c(N2CCc3ccc(CNC(=O)c4nc5sc6c(c5c(=O)[nH]4)CCS(=O)(=O)C6)cc3C2)c(=O)c1=O" = < 250 nM

----------
Molecular target: activated MMP-8 enzyme (Homo sapiens)
Sequence (P22894 101-467): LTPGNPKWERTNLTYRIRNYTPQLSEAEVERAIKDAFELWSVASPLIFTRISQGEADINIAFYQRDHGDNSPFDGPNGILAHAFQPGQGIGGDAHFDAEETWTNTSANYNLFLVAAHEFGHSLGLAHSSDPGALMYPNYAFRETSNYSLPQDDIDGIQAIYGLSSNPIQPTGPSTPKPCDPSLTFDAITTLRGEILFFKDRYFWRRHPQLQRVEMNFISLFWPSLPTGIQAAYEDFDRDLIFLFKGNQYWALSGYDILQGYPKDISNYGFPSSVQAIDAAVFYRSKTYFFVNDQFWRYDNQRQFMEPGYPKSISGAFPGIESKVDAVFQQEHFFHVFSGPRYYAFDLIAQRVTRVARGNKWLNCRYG
Assay: Assay for determining MMP-8 inhibition (fluorescent substrate)
Settings: Table 2, activity group
OBSERVATION_TYPE: IC50

NC(=O)C1CCc2sc3nc(C(=O)NCc4ccc5c(c4)NC(=O)CO5)[nH]c(=O)c3c21 (stereo not drawn) = < 0.25 µM
COc1ccc(CNC(=O)c2nc3sc4c(c3c(=O)[nH]2)CCC4)cc1 = 0.25 to 20 µM
CCOC(=O)C1CCc2sc3nc(C(=O)NCc4ccc5c(c4)NC(=O)CO5)[nH]c(=O)c3c21 (stereo not drawn) = < 0.25 µM
O=C1COc2ccc(CNC(=O)c3nc4sc5c(c4c(=O)[nH]3)CNC5)cc2N1 = 0.25 to 20 µM
O=C(O)CC1CCCc2sc3nc(C(=O)NCc4ccc5c(c4)NC(=O)CO5)[nH]c(=O)c3c21 (stereo not drawn) = 0.25 to 20 µM

In plain terms, "COc1ccc2c(c1)CCc1sc3nc(C(=O)NCc4ccc5c(c4)NC(=O)CO5)[nH]c(=O)c3c1-2" has a documented IC50 of < 0.25 µM

In plain terms, "Cc1snc2sc3c(=O)[nH]c(C(=O)NCc4ccc5c(c4)NC(=O)CO5)nc3c12" has a documented IC50 of 0.25 to 20 µM

In plain terms, "O=C1COc2ccc(CNC(=O)c3nc4sc5c(c4c(=O)[nH]3)CN(Cc3ccccc3)C5)cc2N1" has a documented IC50 of < 0.25 µM

In plain terms, "O=C1COc2ccc(CNC(=O)c3nc4sc5ccccc5c4c(=O)[nH]3)cc2N1" has a documented IC50 of < 0.25 µM

In plain terms, "COC(=O)c1cccc(CNC(=O)c2nc3sc4c(c3c(=O)[nH]2)CCC4)c1" has a documented IC50 of 0.25 to 20 µM

In plain terms, C#CCNC(=O)C1CCc2sc3nc(C(=O)NCc4ccc5c(c4)NC(=O)CO5)[nH]c(=O)c3c21 (stereo not drawn) has a documented IC50 of < 0.25 µM
